Assay target: androgen receptor (Homo sapiens, UniProt P10275)
Sequence (P10275 1-920 Q868H): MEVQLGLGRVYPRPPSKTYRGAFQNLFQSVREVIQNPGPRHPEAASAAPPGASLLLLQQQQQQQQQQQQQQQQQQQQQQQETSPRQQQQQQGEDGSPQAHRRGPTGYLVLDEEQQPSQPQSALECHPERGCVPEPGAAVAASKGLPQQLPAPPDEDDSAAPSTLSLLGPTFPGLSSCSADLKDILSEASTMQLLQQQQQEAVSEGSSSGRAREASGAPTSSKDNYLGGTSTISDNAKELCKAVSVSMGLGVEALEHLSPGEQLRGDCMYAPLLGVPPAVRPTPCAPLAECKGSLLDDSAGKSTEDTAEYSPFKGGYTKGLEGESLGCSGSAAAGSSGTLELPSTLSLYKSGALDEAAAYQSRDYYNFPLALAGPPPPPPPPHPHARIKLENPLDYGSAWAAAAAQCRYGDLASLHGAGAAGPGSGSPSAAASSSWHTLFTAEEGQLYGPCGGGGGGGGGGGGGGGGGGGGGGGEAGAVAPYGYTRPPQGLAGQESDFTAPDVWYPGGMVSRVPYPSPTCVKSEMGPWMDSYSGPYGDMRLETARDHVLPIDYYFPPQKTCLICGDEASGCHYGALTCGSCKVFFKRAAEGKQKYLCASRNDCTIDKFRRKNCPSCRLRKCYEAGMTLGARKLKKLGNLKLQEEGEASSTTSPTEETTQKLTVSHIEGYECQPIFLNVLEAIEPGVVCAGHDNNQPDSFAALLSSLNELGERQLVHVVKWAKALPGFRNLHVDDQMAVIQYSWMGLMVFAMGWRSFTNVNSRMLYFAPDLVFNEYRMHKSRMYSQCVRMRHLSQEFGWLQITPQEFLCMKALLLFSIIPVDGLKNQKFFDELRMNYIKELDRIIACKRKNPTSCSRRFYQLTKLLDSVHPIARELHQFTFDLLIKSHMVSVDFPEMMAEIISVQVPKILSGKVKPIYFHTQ
Protocol: AR Antagonist Cell Assay (MMTV-luciferase reporter, inhibition of DHT induction)
Format: cell-based
Condition summary: MDA-MB453-MMTV clone 54-19 cells, 100 pM DHT, 17 hr, luciferase; read-out: Cell IC50
Recorded endpoint: IC50 (nM)

CC1CCCCN1S(=O)(=O)c1ccc2[nH]c(=O)cc(C(F)(F)F)c2c1 (centres unmarked) :: 1550
CC1CCN(S(=O)(=O)c2ccc3[nH]c(=O)cc(C(F)(F)F)c3c2)CC1 :: 960

[A] CCOC(=O)C1CCN(S(=O)(=O)c2ccc3[nH]c(=O)cc(C(F)(F)F)c3c2)CC1
[B] O=c1cc(C(F)(F)F)c2cc(S(=O)(=O)N3CCN(CCc4cccs4)CC3)ccc2[nH]1
Out of A and B , name the one with the higher IC50. Field: selected label. Fill in the label of the entry you choose. B
(B: 2660 nM, A: 1260 nM)
